System under test: human Adenosine A2b receptor (Homo sapiens (Human))
Sequence (P29275 whole entry): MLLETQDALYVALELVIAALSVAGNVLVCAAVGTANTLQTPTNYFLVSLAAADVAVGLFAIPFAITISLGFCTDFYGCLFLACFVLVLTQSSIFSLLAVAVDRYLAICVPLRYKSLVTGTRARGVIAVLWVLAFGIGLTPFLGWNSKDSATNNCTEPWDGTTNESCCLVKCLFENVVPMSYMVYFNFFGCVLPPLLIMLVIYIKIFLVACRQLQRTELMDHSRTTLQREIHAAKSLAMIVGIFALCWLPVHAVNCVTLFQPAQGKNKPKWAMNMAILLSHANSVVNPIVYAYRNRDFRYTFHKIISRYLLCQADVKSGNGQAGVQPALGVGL
Assay comment: Adenosine receptor TR-FRET binding assay (A2b)
Assay setup: TR-FRET, inhibition of binding of 30 nM CA200645, CHO cell membranes
Experimental endpoint: Ki (nM)

# annotated cases, reported Ki shown
Cc1cc(-c2sc(NC(=O)N3CCS(=O)(=NC#N)CC3)nc2-c2cccc(C#N)c2)cc(C)n1; 1.3
Cc1cc(-c2sc(NC(=O)N3CC4(COC4)C3)nc2-c2cccc(C#N)c2)cc(C(C)(C)O)n1; 8.4
CN=S1(=O)CCN(C(=O)Nc2nc(-c3cccc(C#N)c3)c(-c3cc(C)nc(C)c3)s2)CC1; 5.4
Cc1cc(-c2sc(NC(=O)N3C4CNCC3C4)nc2-c2cccc(C#N)c2)cc(C)n1; 11.9

(P) Cc1cc(-c2sc(NC(=O)N3CCC(C(N)=O)CC3)nc2-c2cccc(C#N)c2)cc(C)n1
(Q) Cc1cc(-c2sc(NC(=O)N3CC4(COC4)C3)nc2-c2cccc(C#N)c2)cc(Cl)n1
Of P and Q , which carries the smaller reported Ki figure? # respond with the chosen item's label
Q

----------
Recorded pIC50, one value per entry.
System: human PBMCs
Assay comment: CD3/CD28 stimulated IL-2 release NECA reversal assay in human PBMCs
Format: cell-based
Assay setup: PBMC, 1 uM NECA, 24 hours, IL-2 in culture supernatant
When answering, recall that pIC50 equals minus log10 of the concentration in mol/L, and write that number alone.

Example cases with answers are listed next.
Cc1cc(-c2sc(NC(=O)N3CCN4C(=O)OCC4C3)nc2-c2cccc(C#N)c2)cc(C)n1 (stereo not drawn); 8.43
Cc1cc(-c2sc(NC(=O)N3CCN[C@H](C)C3)nc2-c2cccc(C#N)c2)cc(C)n1; 7.69
Cc1cc(-c2sc(NC(=O)N3CCC4(CC3)CNC(=O)N4)nc2-c2cccc(C#N)c2)cc(C)n1; 8.28
Cc1cc(-c2sc(NC(=O)N3CCC4(CCNC4=O)CC3)nc2-c2cccc(C#N)c2)cc(C)n1; 8.33
Cc1cc(-c2sc(NC(=O)N3CCC(C)(O)CC3)nc2-c2cccc(C#N)c2)cc(Cl)n1; 8.48

Could you share which pIC50 value was measured for COC1(C#N)CCN(C(=O)Nc2nc(-c3cccc(C#N)c3)c(-c3cc(C)nc(C)c3)s2)CC1 ?
8.96

----------
System: human PBMCs
Assay comment: CD3/CD28 stimulated IL-2 release NECA reversal assay in human PBMCs
Format: cell-based
Assay setup: PBMC, 1 uM NECA, 24 hours, IL-2 in culture supernatant
pIC50 reference
Conceptually, pIC50 converts a concentration in mol/L into minus its log10.

Below: 5 compounds and their reported pIC50.
Cc1cc(-c2sc(NC(=O)N3CC[C@H]3CO)nc2-c2cccc(C#N)c2)cc(C)n1; 7.87
Cc1cc(-c2sc(NC(=O)N3CCN[C@H](C(C)(C)O)C3)nc2-c2cccc(C#N)c2)cc(C)n1; 8.23
Cc1cc(-c2sc(NC(=O)N3CCC(C#N)(CO)CC3)nc2-c2cccc(C#N)c2)cc(C)n1; 9.22
Cc1cc(-c2sc(NC(=O)N3C[C@@H]4C[C@H]3CN4)nc2-c2cccc(C#N)c2)cc(Cl)n1; 7.52
Cc1cc(-c2sc(NC(=O)N3CC[C@@H](S(C)(=O)=O)C3)nc2-c2cccc(C#N)c2)cc(C)n1; 8.37

What does the record list as pIC50 for Cc1cc(-c2sc(NC(=O)N3CCN(C4COC4)CC3)nc2-c2cccc(C#N)c2)cc(Cl)n1 ?
7.98

Do the same for Cc1cc(-c2sc(NC(=O)N3CCN[C@H](CO)C3)nc2-c2cccc(C#N)c2)cc(Cl)n1 please
7.69

Entry Cc1cc(-c2sc(NC(=O)N3CCN[C@H](C(N)=O)C3)nc2-c2cccc(C#N)c2)cc(Cl)n1 please
7.74

Try this compound too: Cc1cc(-c2sc(NC(=O)N3CC[C@H](C#N)C3)nc2-c2cccc(C#N)c2)cc(C)n1
8.96

Now consider Cc1cc(-c2sc(NC(=O)N3CC4(C3)CS(=O)(=O)C4)nc2-c2cccc(C#N)c2)cc(C)n1 .
7.82

// same read-out, input: [2H]C([2H])([2H])c1cc(-c2sc(NC(=O)N3CCC(C)(C#N)CC3)nc2-c2cccc(C#N)c2)cc(C([2H])([2H])[2H])n1
9.40

// query: CN=S1(=O)CCN(C(=O)Nc2nc(-c3cccc(C#N)c3)c(-c3cc(C)nc(C)c3)s2)CC1
8.07

Request: Cc1cc(-c2sc(NC(=O)N3CCC4(CCCC(=O)N4)CC3)nc2-c2cccc(C#N)c2)cc(C)n1
8.07

One more compound: Cc1cc(-c2sc(NC(=O)N3CC(C)(O)C3)nc2-c2cccc(C#N)c2)cc(C)n1
8.49

Can you handle Cc1cc(-c2sc(NC(=O)N3CC(CO)C3)nc2-c2cccc(C#N)c2)cc(C)n1 next?
8.96

Consider next the compound Cc1cc(-c2sc(NC(=O)N3CC(C)(C#N)C3)nc2-c2cccc(C#N)c2)cc(C)n1 in the same way.
9.10

Repeat with Cc1cc(-c2sc(NC(=O)N3CCC(C#N)(CO)CC3)nc2-c2cccc(C#N)c2)cc(CO)n1
9.00

Try Cc1cc(-c2sc(NC(=O)N3CCC4(CCC(=O)N4C)CC3)nc2-c2cccc(C#N)c2)cc(C)n1 next.
7.98

Okay, and Cc1cc(-c2sc(NC(=O)N3CCN4C(=O)NCCC4C3)nc2-c2cccc(C#N)c2)cc(C)n1 (stereo not shown) ?
8.30

Repeat for the following compound: Cc1cc(-c2sc(NC(=O)N3CCC4(CC3)CNC4=O)nc2-c2cccc(C#N)c2)c(F)c(C)n1
7.96

Now the compound Cc1cc(-c2sc(NC(=O)N3CCS(=N)(=O)CC3)nc2-c2cccc(C#N)c2)cc(C)n1
8.10

Next compound: Cc1cc(-c2sc(NC(=O)N3CC[S+]([O-])CC3)nc2-c2cccc(C#N)c2)cc(C)n1
8.55
